SGF Stability (pH 1.2) 0 min values by entry
- assayName: Metabolic stability in simulated gastric fluid (SGF), pH 1.2, with or without pepsin
- Assay type: in vitro ADME
- runConditions: −Pepsin, 5 μM, 37° C., 0 min
Where a SMILES comes first, the peptide text is derived from it. [ ]: non-standard residue; d: D form. The star is where a group is joined. ξ: configuration not given here. pY = N[CH](Cc1ccc(OP(=O)(O)O)cc1)C(=O)O; ξpY = NC(Cc1ccc(OP(=O)(O)O)cc1)C(=O)O; Ile(3ξ) = CCC(C)[C@H](N)C(=O)O; Hexanoyl = CCCCCC(=O)*; Ahx = NCCCCCC(=O)O
Hi! Could you send only the number? It should be in %, unit omitted.

[
  {
    "compound": "CCCCCC(=O)NC(Cc1ccc(OP(=O)(O)O)cc1)C(=O)N[C@H](C(=O)NCCCCCC(N)=O)C(C)CC.N.N (stereo partly drawn) [Compound A29] (Hexanoyl-[ξpY]-[Ile(3ξ)]-[Ahx]-NH2)",
    "SGF Stability (pH 1.2) 0 min / %": 100
  },
  {
    "compound": "CCCCCC(=O)N1C(Cc2ccc(OP(=O)([O-])[O-])cc2)C(=O)N(C(C(=O)NCCCCCC(N)=O)C(C)CC)C12CCN(C)CC2.[Na+].[Na+] (stereo not drawn)",
    "SGF Stability (pH 1.2) 0 min / %": 100
  }
]

Prompt: Sample CCCCCC(=O)NC(Cc1ccc(OP(=O)([O-])O)cc1)C(=O)NC(C(=O)NCCCCCC(N)=O)C(C)CC.[Na+] (stereo not drawn) [Compound A30] (Hexanoyl-[pY]-Ile-[Ahx]-NH2; configuration not given here) — what was its SGF Stability (pH 1.2) 0 min?
Completion: 100

Values compiled from patent US12421276B2.
